Hey, just so you know, these numbers are from the RNAGym collection of RNA variant scans (doi:10.1073/pnas.2313332121).

B1: TPR t1 (parent)
chain: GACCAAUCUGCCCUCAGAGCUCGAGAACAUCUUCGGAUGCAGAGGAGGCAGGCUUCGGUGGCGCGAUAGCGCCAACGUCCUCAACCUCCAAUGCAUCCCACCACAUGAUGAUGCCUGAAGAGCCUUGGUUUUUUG

Variants of: B1
Assay: polymerase ribozyme fitness, log enrichment relative to wild type (log ratio); higher = more active; in vitro selection for triplet polymerase activity
measured-endpoint: polymerase ribozyme fitness (log ratio)

[
  {
    "changes": "C4U C49U G52A",
    "numeric-value": -3.12
  },
  {
    "changes": "C72G C124G",
    "numeric-value": 1.51
  },
  {
    "changes": "C15A G48C C70U",
    "numeric-value": -3
  },
  {
    "changes": "C3A C28U G63C",
    "numeric-value": -3.87
  },
  {
    "changes": "G36A C124U",
    "numeric-value": 0.816
  },
  {
    "changes": "C72U G117A U133A",
    "numeric-value": -1.1
  },
  {
    "changes": "C56U G69U A90C C94A C104G G113U G122A",
    "numeric-value": -6.84
  },
  {
    "changes": "A41C C62A C82U",
    "numeric-value": -2.04
  },
  {
    "changes": "A118U",
    "numeric-value": 0.282
  },
  {
    "changes": "G42C C56G C72A G77C A100U U132A",
    "numeric-value": -3.99
  },
  {
    "changes": "C22G G71U",
    "numeric-value": -3.63
  },
  {
    "changes": "A43U A50C G77A U126C",
    "numeric-value": -3.5
  },
  {
    "changes": "C11U G48A G61A C86G",
    "numeric-value": -1.75
  },
  {
    "changes": "C8G G120C",
    "numeric-value": 2.34
  },
  {
    "changes": "A37G G60U C80A",
    "numeric-value": -5.24
  },
  {
    "changes": "A29G C49G G57C A121C",
    "numeric-value": -0.725
  },
  {
    "changes": "U33A C64A G69C",
    "numeric-value": -5.43
  },
  {
    "changes": "A43C C56U",
    "numeric-value": -2.57
  },
  {
    "changes": "A16G C40A C86U A90U A91C U106A U112G",
    "numeric-value": -4.19
  },
  {
    "changes": "G60A C62U C79G U106G",
    "numeric-value": -5.51
  },
  {
    "changes": "G45U A100C A111G A121G U125C",
    "numeric-value": -1.08
  },
  {
    "changes": "G51A A74G A83G G120U C123G G128U",
    "numeric-value": -1.97
  }
]
